The measured values listed here are drawn from PubChem BioAssay (NCI).

growth for assorted molecules
Test system: RPMI-8226 leukemia
Assay: NCI-60 one-dose screen, 48 h (100 = growth as untreated, 0 = no growth, -100 = all killed)
Conditions: 10 µM unless noted
Protocol: Growth inhibition of the RPMI-8226 human tumor cell line is measured as a screen for anti-cancer activity. Cells are grown in 96 well plates and exposed to the test compound for 48 hours. Compounds are tested at a single concentration, which is 10^-5 M for most compounds. The reported endpoint is percent growth (GI% or GIPRCNT), where numbers from 0 - 100% represent growth inhibition, and numbers from -100% - 0 represent cell death. For example, a value of 40 represents 60% growth inhibition. […]
The panel holds about 83,000 compounds, 20% with a hit somewhere; the sample as a whole holds those more often.
Endpoint: growth (%)

| Molecule | Numeric readout |
| --- | --- |
| c1ccc(C(Nc2ccccn2)(c2ccccc2)c2ccccc2)cc1 | 34.7 |
| COc1cccc2nc(Nc3cccc(NC(=O)c4ccc(N5CCN(C)CC5)c(C(F)(F)F)c4)c3)ccc12 | 7.17 |
| COc1ccc(CCN2COc3c([C@@H](C)CCC=C(C)C)ccc(C)c3C2)cc1OC | 28.5 |
| COc1cc(/C=C/C(=O)c2ccc(NC(=O)CSc3nnc(-c4ccc(Cl)cc4)n3-c3ccccc3)cc2)cc(OC)c1OC | 9.23 |
| O=C(CCc1nc2sc3c(c2c(=O)[nH]1)CCC3)NCc1cn(-c2ccccc2)nc1-c1ccccc1 | 90 |
| CCN(CC)Cc1cc(Nc2ccnc3cc(Cl)ccc23)cc(-c2ccc(Cl)cc2)c1O | 6 |
| CCC(=O)NC(O)C(Cl)(Cl)C(C)Cl (stereo not given) | 105 |
| COc1ccc(NC(=O)C2c3ccccc3C(=O)N(CC(C)C)C2c2cccs2)cc1 (stereo not given) | 86.3 |
| COS(=O)(=O)CCN(CCOS(C)(=O)=O)S(C)(=O)=O | 99.8 |
| CC(C)N=C1CCCC1C(=S)SSC(=S)C1CCCC1=NC(C)C (stereo not given) | 59.5 |
